System: FaDu cells
experiment: CellTiter-Glo in vitro cell proliferation assay, Example 8
Format: cell-based, Human
stated-conditions: H&N - SC, read-out: Mean IC50

molecule: COc1ccc2c3c([nH]c2c1)C(CC(CC1=NCCc2c1[nH]c1cc(OC)ccc21)c1ccc(OC)c(O)c1I)=NCC3 [compound 14]
IC50 [µM]: 19.2
//
molecule: COc1ccc2c3c([nH]c2c1)C(CC(CC1=NCCc2c1[nH]c1cc(OC)ccc21)c1ccc(F)cc1)=NCC3 [compound 21]
IC50 [µM]: 6.26
//
molecule: COc1ccc2c3c([nH]c2c1)C(CC(CC1=NCCc2c1[nH]c1cc(OC)ccc21)c1ccc(OC(C)=O)c(OC)c1)=NCC3 [compound 6]
IC50 [µM]: 15.8
//
molecule: COc1ccc2c3c([nH]c2c1)C(CC(CC1=NCCc2c1[nH]c1cc(OC)ccc21)c1ccc(F)c(Oc2ccccc2)c1)=NCC3 [compound 19]
IC50 [µM]: 44.4
//
molecule: COc1ccc2c3c([nH]c2c1)C(CC(CC1=NCCc2c1[nH]c1cc(OC)ccc21)c1ccc(Cl)cc1)=NCC3 [compound 27]
IC50 [µM]: 11.2

====

The following compounds are shown together with reported IC50 values.
System: KMM-1 cells
experiment: CellTiter-Glo in vitro cell proliferation assay, Example 8
Format: cell-based, Human
stated-conditions: KMM-1, HMCL-A; read-out: Mean IC50
value-kind: IC50 (µM)

compound: COc1ccc2c3c([nH]c2c1)C(CC(CC1=NCCc2c1[nH]c1cc(OC)ccc21)c1ccc(OC)c(O)c1Br)=NCC3 [compound 13]
value-units: µM
measured-result: 13.1

compound: COc1ccc(C(CC2=NCCc3c2[nH]c2cc(OC)ccc32)CC2=NCCc3c2[nH]c2cc(OC)ccc32)c(O)c1 [compound 8]
value-units: µM
measured-result: 13.2

compound: COc1ccc2c3c([nH]c2c1)C(CC(CC1=NCCc2c1[nH]c1cc(OC)ccc21)c1ccc(Cl)cc1)=NCC3 [compound 27]
value-units: µM
measured-result: 7.18

compound: COc1cccc(C(CC2=NCCc3c2[nH]c2cc(OC)ccc32)CC2=NCCc3c2[nH]c2cc(OC)ccc32)c1 [compound 15]
value-units: µM
measured-result: 7.36

compound: COc1ccc2c3c([nH]c2c1)C(CC(CC1=NCCc2c1[nH]c1cc(OC)ccc21)c1ccc(C(C)C)cc1)=NCC3 [compound 29]
value-units: µM
measured-result: 7.71

compound: COc1ccc2c3c([nH]c2c1)C(CC(CC1=NCCc2c1[nH]c1cc(OC)ccc21)c1cc(Br)c(O)c(OC)c1)=NCC3 [compound 12]
value-units: µM
measured-result: 10.6

====

System: H1975 (EGFR mut) cells
experiment: CellTiter-Glo in vitro cell proliferation assay, Example 8
Format: cell-based, Human
stated-conditions: NSCLC, read-out: Mean IC50
pIC50: −log10 of the molar value.

smiles-string: COc1ccc2c3c([nH]c2c1)C(CC(CC1=NCCc2c1[nH]c1cc(OC)ccc21)c1cc(O)c(OC)c(OC)c1)=NCC3
pIC50: 4.71
--
smiles-string: COc1ccc2c3c([nH]c2c1)C(CC(CC1=NCCc2c1[nH]c1cc(OC)ccc21)c1ccc(OC)c(O)c1)=NCC3
pIC50: 4.22
--
smiles-string: COc1ccc2c3c([nH]c2c1)C(CC(CC1=NCCc2c1[nH]c1cc(OC)ccc21)c1ccc(OC)c(O)c1I)=NCC3
pIC50: 4.47
--
smiles-string: COc1ccc(C(CC2=NCCc3c2[nH]c2cc(OC)ccc32)CC2=NCCc3c2[nH]c2cc(OC)ccc32)c(O)c1
pIC50: 4.26
